# Tested on: ATP;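 also: ATP exposure 15 min at 22 °C before imaging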
# testName: switch fluorescence ratio, 500 uM ATP over buffer (Cy3 cluster intensity, sum of 5 cycles each) (fold (ratio)); higher = stronger signal-on switching upon ATP binding; sequences stand for … in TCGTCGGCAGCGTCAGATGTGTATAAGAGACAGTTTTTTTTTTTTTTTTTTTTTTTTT…TC
# conditionInfo: aptamer strand: ATP DNA aptamer (quencher-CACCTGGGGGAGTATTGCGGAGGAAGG + anchor), 100 nM annealed; ATP concentration: 500 uM
testReadout: switch fluorescence ratio
Answer with a number only.

{"columns": ["residueCodes", "switch fluorescence ratio"],
 "data": [
  ["TTGTATTGGA", 0.995],
  ["ATGGTCTGGG", 0.971],
  ["AGTGGTATGA", 1.01]
]}

Form: sequence = ATTCTTACCG ; switch fluorescence ratio = 1.09

* * *

# Test system: ATP;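 also: ATP exposure 15 min at 22 °C before imaging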
# testName: switch fluorescence ratio, 500 uM ATP over buffer (Cy3 cluster intensity, sum of 5 cycles each) (fold (ratio)); higher = stronger signal-on switching upon ATP binding; sequences stand for … in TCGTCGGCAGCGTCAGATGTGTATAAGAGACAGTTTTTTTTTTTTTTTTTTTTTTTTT…TC
# conditionInfo: aptamer strand: ATP DNA aptamer (quencher-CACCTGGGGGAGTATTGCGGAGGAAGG + anchor), 100 nM annealed; ATP concentration: 500 uM
Returns T if the recorded switch fluorescence ratio is greater than or equal to 1, and F otherwise.

{"columns": ["residueCodes", "classAssignment"],
 "data": [
  ["TTACAAGATT", "T"],
  ["TGGGGTCCGG", "F"],
  ["AAATTGGAAG", "T"]
]}

Incoming: Check this sequence for switch fluorescence ratio at or above 1: ACTGTAAGTC
Outgoing: T

* * *

# Test system: ATP;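 also: ATP exposure 15 min at 22 °C before imaging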
# testName: switch fluorescence ratio, 500 uM ATP over buffer (Cy3 cluster intensity, sum of 5 cycles each) (fold (ratio)); higher = stronger signal-on switching upon ATP binding; sequences stand for … in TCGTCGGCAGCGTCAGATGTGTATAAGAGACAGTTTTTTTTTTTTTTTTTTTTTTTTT…TC
# conditionInfo: aptamer strand: ATP DNA aptamer (quencher-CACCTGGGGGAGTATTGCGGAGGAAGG + anchor), 100 nM annealed; ATP concentration: 500 uM
As shown below, each of these sequences has a reported switch fluorescence ratio value.
Answer with a number only.

// known answers, use as guide
{"columns": ["residueCodes", "switch fluorescence ratio"],
 "data": [
  ["CATGAGATAC", 1.16],
  ["GAGTCAATAG", 2.98],
  ["TTTTAGTGGT", 0.992],
  ["GTGATAACGG", 1.01],
  ["AAGTTATGTT", 1.02]
]}

Form: sequence = ATAGAAGGGT ; switch fluorescence ratio = 1.01

Form: sequence = CCGGATGGGT ; switch fluorescence ratio = 1.01

* * *

As shown below, each of these sequences has a reported switch fluorescence ratio value.
# Test system: ATP;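 also: ATP exposure 15 min at 22 °C before imaging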
# testName: switch fluorescence ratio, 500 uM ATP over buffer (Cy3 cluster intensity, sum of 5 cycles each) (fold (ratio)); higher = stronger signal-on switching upon ATP binding; sequences stand for … in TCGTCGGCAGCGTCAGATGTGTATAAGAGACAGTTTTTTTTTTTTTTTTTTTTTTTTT…TC
# conditionInfo: aptamer strand: ATP DNA aptamer (quencher-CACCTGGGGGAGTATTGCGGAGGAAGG + anchor), 100 nM annealed; ATP concentration: 500 uM
Answer with a number only.

// known answers, use as guide
{"columns": ["residueCodes", "testReadout", "experimentalResult"],
 "data": [
  ["AAGTGGTCTG", "switch fluorescence ratio", 0.983],
  ["AGGGAAAGGG", "switch fluorescence ratio", 1.02],
  ["GGTTGAAAGT", "switch fluorescence ratio", 1.48],
  ["TGAGGAAATG", "switch fluorescence ratio", 1],
  ["CGGAGGGGTA", "switch fluorescence ratio", 1.13]
]}

Form: sequence = GGGGTCGGTC ; switch fluorescence ratio = 1

Form: sequence = GGGGGAACGT ; switch fluorescence ratio = 1.05

Form: sequence = TATGCACGGA ; switch fluorescence ratio = 1.07

Form: sequence = GGGGTTTGCG ; switch fluorescence ratio = 0.973

Form: sequence = TAACTATAAG ; switch fluorescence ratio = 1

Form: sequence = AGGTATTCAG ; switch fluorescence ratio = 1.01

Form: sequence = TGGGTCATCT ; switch fluorescence ratio = 1.02

* * *

As shown below, each of these sequences has a reported switch fluorescence ratio value.
# Test system: ATP;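 also: ATP exposure 15 min at 22 °C before imaging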
# testName: switch fluorescence ratio, 500 uM ATP over buffer (Cy3 cluster intensity, sum of 5 cycles each) (fold (ratio)); higher = stronger signal-on switching upon ATP binding; sequences stand for … in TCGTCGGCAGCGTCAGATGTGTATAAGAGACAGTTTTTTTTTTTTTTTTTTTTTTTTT…TC
# conditionInfo: aptamer strand: ATP DNA aptamer (quencher-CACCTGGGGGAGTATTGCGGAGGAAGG + anchor), 100 nM annealed; ATP concentration: 500 uM
Answer with a number only.

// known answers, use as guide
{"columns": ["residueCodes", "targetSystem", "experimentalResult"],
 "data": [
  ["AGTAAAGTGG", "ATP", 0.971],
  ["GGTTTTTTCT", "ATP", 1.03],
  ["AGTAAGGCGC", "ATP", 1.02],
  ["ATGACTTGTA", "ATP", 0.987],
  ["CATGTGCACC", "ATP", 1.01]
]}

Form: sequence = CAGGACTATT ; switch fluorescence ratio = 0.995

* * *

# Tested on: ATP;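 also: ATP exposure 15 min at 22 °C before imaging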
# testName: switch fluorescence ratio, 500 uM ATP over buffer (Cy3 cluster intensity, sum of 5 cycles each) (fold (ratio)); higher = stronger signal-on switching upon ATP binding; sequences stand for … in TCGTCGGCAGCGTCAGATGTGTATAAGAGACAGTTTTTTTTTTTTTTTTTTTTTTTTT…TC
# conditionInfo: aptamer strand: ATP DNA aptamer (quencher-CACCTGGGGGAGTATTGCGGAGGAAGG + anchor), 100 nM annealed; ATP concentration: 500 uM
testReadout: switch fluorescence ratio

Record for TCTCGGAAAA under target or system ATP: switch fluorescence ratio reported as 0.996

Record for GATGGGGGAA under target or system ATP: switch fluorescence ratio reported as 0.986

Record for TTGTCCGCGG under target or system ATP: switch fluorescence ratio reported as 1.06

Record for TATGCCAGCG under target or system ATP: switch fluorescence ratio reported as 1.01

* * *

As shown below, each of these sequences has a reported switch fluorescence ratio value.
# System: ATP;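 also: ATP exposure 15 min at 22 °C before imaging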
# testName: switch fluorescence ratio, 500 uM ATP over buffer (Cy3 cluster intensity, sum of 5 cycles each) (fold (ratio)); higher = stronger signal-on switching upon ATP binding; sequences stand for … in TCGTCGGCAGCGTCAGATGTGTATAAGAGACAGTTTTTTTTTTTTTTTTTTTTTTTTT…TC
# conditionInfo: aptamer strand: ATP DNA aptamer (quencher-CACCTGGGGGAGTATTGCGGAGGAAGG + anchor), 100 nM annealed; ATP concentration: 500 uM
Answer with a number only.

// known answers, use as guide
{"columns": ["residueCodes", "switch fluorescence ratio"],
 "data": [
  ["AAGTAGTTTC", 1.01],
  ["ATTTAAATCT", 1.02],
  ["AATAGCAACT", 1.06],
  ["AGGTTTGTGG", 0.976],
  ["CAGAAGGGGG", 1.11]
]}

Form: sequence = TTTGGAGTTT ; switch fluorescence ratio = 0.987

Form: sequence = GGTTTCGGGA ; switch fluorescence ratio = 1.01

* * *

# System: ATP;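 also: ATP exposure 15 min at 22 °C before imaging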
# testName: switch fluorescence ratio, 500 uM ATP over buffer (Cy3 cluster intensity, sum of 5 cycles each) (fold (ratio)); higher = stronger signal-on switching upon ATP binding; sequences stand for … in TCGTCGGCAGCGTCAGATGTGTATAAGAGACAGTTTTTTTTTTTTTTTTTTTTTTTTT…TC
# conditionInfo: aptamer strand: ATP DNA aptamer (quencher-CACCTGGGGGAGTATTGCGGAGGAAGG + anchor), 100 nM annealed; ATP concentration: 500 uM
testReadout: switch fluorescence ratio
Answer with a number only.

// known answers, use as guide
{"columns": ["residueCodes", "switch fluorescence ratio"],
 "data": [
  ["AGGAGTGGTA", 0.999],
  ["CCAGTATATT", 1.02],
  ["TGGTTGAAT", 1.01],
  ["TTTAGTATGT", 1.01],
  ["GTGAGGGGGA", 1],
  ["GGGTTGGGCC", 0.989]
]}

Form: sequence = ATTCCAGAGG ; switch fluorescence ratio = 1.01

Form: sequence = ATCTAAAAGG ; switch fluorescence ratio = 1.01

Form: sequence = GCGTTAATGG ; switch fluorescence ratio = 1

Form: sequence = TATGTTTCGG ; switch fluorescence ratio = 0.98

Form: sequence = TTTTATGCTA ; switch fluorescence ratio = 1

Form: sequence = GTCGGGAGGC ; switch fluorescence ratio = 1.02

Form: sequence = GTTTTCTCAT ; switch fluorescence ratio = 0.989

Form: sequence = ACCATGCCGG ; switch fluorescence ratio = 1

Form: sequence = GCTTGAGGGA ; switch fluorescence ratio = 0.984

Form: sequence = AGTTTTTCCA ; switch fluorescence ratio = 1.02

Form: sequence = GAGGGAAGGT ; switch fluorescence ratio = 1.02

Form: sequence = TTTTTATCAG ; switch fluorescence ratio = 0.977

Form: sequence = TTAACGTGTG ; switch fluorescence ratio = 0.975

Form: sequence = CCGTTGATGT ; switch fluorescence ratio = 1.01

Form: sequence = TGGTTCCCTT ; switch fluorescence ratio = 1.02

Form: sequence = TTAATTTAAA ; switch fluorescence ratio = 0.975

Form: sequence = AGGGGGGCCT ; switch fluorescence ratio = 0.989

Form: sequence = TTAAAAAGTG ; switch fluorescence ratio = 1.02

Form: sequence = GAGGGAGATT ; switch fluorescence ratio = 1.02

Form: sequence = TAGGAAGCGT ; switch fluorescence ratio = 0.978

Form: sequence = TTTATGATCG ; switch fluorescence ratio = 0.977

Data credit: the supplement of paper PMC10126150
